Target or system RAC-beta serine/threonine-protein kinase (Homo sapiens): recorded IC50 listed per item.
Record the value in µM, omitting the unit from your answer.

| COMPOUND | IC50 [µM] |
| --- | --- |
| CN1C(=O)[C@@H](N2CCc3cn(Cc4ccccc4)nc3C2=O)COc2ccccc21 | 1 |

Consider now this further compound.
Lab note: CN1C(=O)[C@@H](N2CCc3cn(CC4CCS(=O)(=O)CC4)nc3C2=O)COc2ccccc21 [TP-030n] gave IC50 of 1

###

# ASSAY TARGET: Protein kinase C delta type (Homo sapiens, UniProt Q05655)
# Sequence (Q05655 whole entry): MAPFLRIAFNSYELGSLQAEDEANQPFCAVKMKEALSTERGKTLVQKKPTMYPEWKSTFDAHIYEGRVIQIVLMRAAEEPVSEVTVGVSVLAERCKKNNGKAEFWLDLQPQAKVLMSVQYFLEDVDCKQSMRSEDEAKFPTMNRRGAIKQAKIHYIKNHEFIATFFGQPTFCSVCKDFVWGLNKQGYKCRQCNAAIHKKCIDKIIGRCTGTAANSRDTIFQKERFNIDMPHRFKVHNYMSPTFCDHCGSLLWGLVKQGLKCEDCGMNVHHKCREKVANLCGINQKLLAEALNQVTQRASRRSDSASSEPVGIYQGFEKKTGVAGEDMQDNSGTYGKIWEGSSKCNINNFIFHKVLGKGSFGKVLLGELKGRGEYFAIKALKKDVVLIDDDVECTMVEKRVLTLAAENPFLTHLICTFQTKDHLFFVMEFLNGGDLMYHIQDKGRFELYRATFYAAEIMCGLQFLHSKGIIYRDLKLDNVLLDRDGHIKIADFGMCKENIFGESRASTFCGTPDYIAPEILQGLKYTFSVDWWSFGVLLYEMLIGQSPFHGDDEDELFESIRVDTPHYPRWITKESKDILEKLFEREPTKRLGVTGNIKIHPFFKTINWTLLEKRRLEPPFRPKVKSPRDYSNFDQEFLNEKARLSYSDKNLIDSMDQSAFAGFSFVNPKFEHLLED
# RUN DESCRIPTION: PKCdelta(PRKDPFP1) Takeda global kinase panel
OBSERVATION TYPE: IC50 (µM)
Record the value in µM, omitting the unit from your answer.

| COMPOUND | REPORTED VALUE |
| --- | --- |
| CN1C(=O)[C@@H](N2CCc3cn(CC4CCS(=O)(=O)CC4)nc3C2=O)COc2ccccc21 [TP-030n] | 1 |

Consider now this further compound.
"CN1C(=O)[C@@H](N2CCc3cn(Cc4ccccc4)nc3C2=O)COc2ccccc21" tested on Protein kinase C delta type (Homo sapiens, UniProt Q05655) gave IC50: 1

src = ChEMBL document CHEMBL4507327
